# mGluR5 receptor (pig) (10 μM) Inhibition (%) annotations
Target: mGluR5 receptor (pig) (Sus scrofa, UniProt I3LUI7)
Construct: 450 μg of protein from brain homogenate is incubated; from tissue; host or cells: pig brain hemispheres without medulla, cerebellum and pons
Sequence (I3LUI7 19-1212): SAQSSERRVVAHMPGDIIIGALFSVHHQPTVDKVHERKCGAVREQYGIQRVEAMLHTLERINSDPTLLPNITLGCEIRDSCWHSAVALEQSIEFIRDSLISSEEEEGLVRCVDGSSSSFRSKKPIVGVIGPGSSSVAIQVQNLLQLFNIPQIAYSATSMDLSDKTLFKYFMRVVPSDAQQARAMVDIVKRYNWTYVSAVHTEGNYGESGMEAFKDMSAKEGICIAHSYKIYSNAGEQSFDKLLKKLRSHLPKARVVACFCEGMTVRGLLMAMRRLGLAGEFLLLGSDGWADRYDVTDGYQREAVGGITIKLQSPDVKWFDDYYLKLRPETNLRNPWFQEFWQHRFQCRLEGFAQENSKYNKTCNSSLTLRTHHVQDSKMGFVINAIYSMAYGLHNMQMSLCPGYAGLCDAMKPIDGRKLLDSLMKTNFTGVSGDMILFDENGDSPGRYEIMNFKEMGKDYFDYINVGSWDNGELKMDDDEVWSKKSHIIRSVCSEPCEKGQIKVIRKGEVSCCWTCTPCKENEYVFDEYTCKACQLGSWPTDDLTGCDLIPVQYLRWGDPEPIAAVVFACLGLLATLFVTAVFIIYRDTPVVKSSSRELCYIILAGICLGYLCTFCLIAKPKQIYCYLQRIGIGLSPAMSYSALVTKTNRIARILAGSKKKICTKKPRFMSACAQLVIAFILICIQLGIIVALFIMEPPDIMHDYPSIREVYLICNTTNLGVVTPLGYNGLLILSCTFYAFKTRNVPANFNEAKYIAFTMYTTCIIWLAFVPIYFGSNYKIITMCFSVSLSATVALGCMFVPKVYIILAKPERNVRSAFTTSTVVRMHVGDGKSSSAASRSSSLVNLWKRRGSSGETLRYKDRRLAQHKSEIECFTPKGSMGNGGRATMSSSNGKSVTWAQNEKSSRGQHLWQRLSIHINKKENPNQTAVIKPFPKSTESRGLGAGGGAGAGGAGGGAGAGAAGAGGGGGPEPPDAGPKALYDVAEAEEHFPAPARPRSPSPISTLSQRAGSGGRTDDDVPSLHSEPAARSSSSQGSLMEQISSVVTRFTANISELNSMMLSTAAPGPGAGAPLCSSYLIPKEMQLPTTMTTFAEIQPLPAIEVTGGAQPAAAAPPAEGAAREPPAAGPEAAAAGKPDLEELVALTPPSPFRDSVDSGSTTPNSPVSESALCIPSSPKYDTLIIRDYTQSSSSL
Assay method text: [3H]-MPEP binding in the mGluR5 receptor binding assay (pig brain homogenate)
Setup conditions: 10 μM test compound; 5 nM [3H]-MPEP; 450 μg protein from pig brain homogenate; 60 min, room temperature
Parameter: mGluR5 receptor (pig) (10 μM) Inhibition (%)

- Compound: "COc1ccc(C#CC(=O)N2CCc3ccccc3C2)cc1"
  Result: "24%"
- Compound: "Cc1ccc(C#CC(=O)N2CCCc3ccccc32)cc1"
  Result: "18%"
- Compound: "Cc1ccccc1C#CC(=O)N1c2ccccc2CC1C (stereo not drawn)"
  Result: "12%"
- Compound: "O=C(C#Cc1ccc(F)cc1)N1CCc2ccccc2C1"
  Result: "88%"
- Compound: "Cc1ccc(C#CC(=O)N2c3ccccc3CC2C)c(C)c1 (stereo not drawn)"
  Result: "34%"
- Compound: "O=C(C#Cc1cccs1)N1CCc2ccccc2C1"
  Result: "86%"
- Compound: "Cc1ccc(C#CC(=O)N2c3ccccc3CC2C)cc1 (stereo not drawn)"
  Result: "34%"
- Compound: "Cc1ccc(C#CC(=O)N2CCc3ccccc3C2)cc1"
  Result: "44%"
- Compound: "O=C(C#Cc1ccccc1F)N1CCc2ccccc2C1"
  Result: "83%"
- Compound: "CC1Cc2ccccc2N1C(=O)C#Cc1ccccc1 (stereo not drawn)"
  Result: "39%"
- Compound: "Cc1cc(C#CC(=O)N2c3ccccc3CC2C)ccc1F (stereo not drawn)"
  Result: "27%"
- Compound: "Cc1cc(C#CC(=O)N2CCc3ccccc3C2)ccc1F"
  Result: "77%"
- Compound: "Cc1cccc(C#CC(=O)N2c3ccccc3CC2C)c1C (stereo not drawn)"
  Result: "18%"
- Compound: "N#Cc1ccccc1C#CC(=O)N1CCc2ccccc2C1"
  Result: "26%"
- Compound: "Cc1ccc(C#CC(=O)N2c3ccccc3CC2C)cc1C (stereo not drawn)"
  Result: "25%"
- Compound: "CC1Cc2ccccc2N1C(=O)C#Cc1ccccc1F (stereo not drawn)"
  Result: "49%"
- Compound: "Cc1ccc(C#CC(=O)N2c3ccccc3CC2C)cc1F (stereo not drawn)"
  Result: "11%"
- Compound: "O=C(C#Cc1ccccc1)N1CCc2ccccc2C1"
  Result: "84%"
- Compound: "COc1ccc(Br)c(C#CC(=O)N2c3ccccc3CC2C)c1 (stereo not drawn)"
  Result: "45%"
- Compound: "COc1cccc(C#CC(=O)N2CCc3ccccc3C2)c1"
  Result: "12%"
- Compound: "Cc1cccc(C#CC(=O)N2CCc3ccccc3C2)c1"
  Result: "103%"
- Compound: "CC1Cc2ccccc2N1C(=O)C#Cc1cccs1 (stereo not drawn)"
  Result: "48%"
- Compound: "Cc1ccc(C#CC(=O)N2CCc3ccccc3C2)cc1C"
  Result: "43%"
- Compound: "COc1ccc(C#CC(=O)N2c3ccccc3CC2C)cc1 (stereo not drawn)"
  Result: "46%"
- Compound: "CC1Cc2ccccc2N1C(=O)C#Cc1ccc(Cl)cc1Cl (stereo not drawn)"
  Result: "16%"
- Compound: "N#Cc1cccc(C#CC(=O)N2CCc3ccccc3C2)c1"
  Result: "90%"
- Compound: "Cc1cccc(C#CC(=O)N2c3ccccc3CC2C)c1 (stereo not drawn)"
  Result: "68%"
- Compound: "Cc1ccc(C#CC(=O)N2CCc3ccccc3C2)cc1F"
  Result: "12%"
- Compound: "CC1Cc2ccccc2N1C(=O)C#Cc1ccc(F)cc1F (stereo not drawn)"
  Result: "27%"
- Compound: "CC1Cc2ccccc2N1C(=O)C#Cc1cccc(Cl)c1 (stereo not drawn)"
  Result: "70%"
- Compound: "O=C(C#Cc1ccc(C(F)(F)F)cc1)N1CCc2ccccc2C1"
  Result: "16%"
- Compound: "CC1Cc2ccccc2N1C(=O)C#Cc1ccc(F)cc1 (stereo not drawn)"
  Result: "34%"
- Compound: "CC1Cc2ccccc2N1C(=O)C#Cc1ccccc1C(F)(F)F (stereo not drawn)"
  Result: "45%"
